Ref: patent US20250152564A1

Tested on: BaF3 FGFR2-BICC1 V564F cells
Test: CellTiter-Glo cell proliferation inhibition, BaF3 FGFR2-BICC1 V564F
Type: cell-based
Conditions: Mus musculus, 72 h, read-out: BaF3 FGFR2-BICC1 V564F inhibitory activity IC50
pIC50: −log10 of the molar value.
Property label: pIC50

These recorded examples may help you get a feel for the data.
Query: Fill in the blank: the reported pIC50 of C=CC(=O)N1CC[C@H](n2nc(C#Cc3cc4ncn(CC)c4cc3F)c3c(N)ncc(C(C)=O)c32)C1 [Example 24] is ____.
Reply: 9.10

Query: Fill in the blank: the reported pIC50 of C=CC(=O)N1CC[C@H](n2nc(C#Cc3cc4ncn(C5CC5)c4cc3F)c3c(N)ncc(C(=O)CC)c32)C1 [Example 48] is ____.
Reply: 8.85

Query: Fill in the blank: the reported pIC50 of C=CC(=O)N1CC[C@H](n2nc(C#Cc3ccc4c(c3)ncn4C)c3c(N)ncc(C(=O)CC)c32)C1 [Example 64] is ____.
Reply: 8.72

Query: Fill in the blank: the reported pIC50 of C=CC(=O)N1CC[C@H](n2nc(C#Cc3ccc4cn(C)nc4c3)c3c(N)ncc(C(=O)C4CC4)c32)C1 [Example 84] is ____.
Reply: 10.00

Query: Fill in the blank: the reported pIC50 of C=CC(=O)N1CC[C@H](n2nc(C#Cc3ccc4csnc4c3)c3c(N)ncc(C(=O)CC)c32)C1 [Example 90] is ____.
Reply: 8.49

Query: Fill in the blank: the reported pIC50 of C=CC(=O)N1CC[C@H](n2nc(C#Cc3ccc4c(c3)ncn4C3CC3)c3c(N)ncc(C(=O)CC)c32)C1 [Example 39] is ____.
Reply: 8.66

Query: Fill in the blank: the reported pIC50 of C=CC(=O)N1CC[C@H](n2nc(C#Cc3ccc4cn(C5CC5)nc4c3)c3c(N)ncc(C(C)=O)c32)C1 [Example 87] is ____.
Reply: 9.52

Query: Fill in the blank: the reported pIC50 of C=CC(=O)N1CC[C@H](n2nc(C#Cc3ccc4cn(CC)nc4c3)c3c(N)ncc(C(C)=O)c32)C1 [Example 85] is ____.
Reply: 9.40

Query: Fill in the blank: the reported pIC50 of C=CC(=O)N1CC[C@H](n2nc(C#Cc3ccc4c(c3)ncn4CC)c3c(N)ncc(C(C)=O)c32)C1 [Example 56] is ____.
Reply: 8.46

Query: Fill in the blank: the reported pIC50 of C=CC(=O)N1CC[C@H](n2nc(C#Cc3ccc4ccnn4c3)c3c(N)ncc(C(C)=O)c32)C1 [Example 71] is ____.
Reply: 8.66

1. C=CC(=O)N1CC[C@H](n2nc(C#Cc3cc4ncn(C5CC5)c4cc3Cl)c3c(N)ncc(C(=O)CC)c32)C1 [Example 45]
2. C=CC(=O)N1CC[C@H](n2nc(C#Cc3cc4ncn(C)c4cc3F)c3c(N)nccc32)C1 [A, reference compound]
Query: // pick larger pIC50 from pair: 1 vs 2 Write the label of whichever entry you select.
Reply: 1
(1: 9.22, 2: 8.13)
